TARGET_OR_SYSTEM: Protein deacetylase HDAC6 (Homo sapiens)
Sequence (Q9UBN7 whole entry): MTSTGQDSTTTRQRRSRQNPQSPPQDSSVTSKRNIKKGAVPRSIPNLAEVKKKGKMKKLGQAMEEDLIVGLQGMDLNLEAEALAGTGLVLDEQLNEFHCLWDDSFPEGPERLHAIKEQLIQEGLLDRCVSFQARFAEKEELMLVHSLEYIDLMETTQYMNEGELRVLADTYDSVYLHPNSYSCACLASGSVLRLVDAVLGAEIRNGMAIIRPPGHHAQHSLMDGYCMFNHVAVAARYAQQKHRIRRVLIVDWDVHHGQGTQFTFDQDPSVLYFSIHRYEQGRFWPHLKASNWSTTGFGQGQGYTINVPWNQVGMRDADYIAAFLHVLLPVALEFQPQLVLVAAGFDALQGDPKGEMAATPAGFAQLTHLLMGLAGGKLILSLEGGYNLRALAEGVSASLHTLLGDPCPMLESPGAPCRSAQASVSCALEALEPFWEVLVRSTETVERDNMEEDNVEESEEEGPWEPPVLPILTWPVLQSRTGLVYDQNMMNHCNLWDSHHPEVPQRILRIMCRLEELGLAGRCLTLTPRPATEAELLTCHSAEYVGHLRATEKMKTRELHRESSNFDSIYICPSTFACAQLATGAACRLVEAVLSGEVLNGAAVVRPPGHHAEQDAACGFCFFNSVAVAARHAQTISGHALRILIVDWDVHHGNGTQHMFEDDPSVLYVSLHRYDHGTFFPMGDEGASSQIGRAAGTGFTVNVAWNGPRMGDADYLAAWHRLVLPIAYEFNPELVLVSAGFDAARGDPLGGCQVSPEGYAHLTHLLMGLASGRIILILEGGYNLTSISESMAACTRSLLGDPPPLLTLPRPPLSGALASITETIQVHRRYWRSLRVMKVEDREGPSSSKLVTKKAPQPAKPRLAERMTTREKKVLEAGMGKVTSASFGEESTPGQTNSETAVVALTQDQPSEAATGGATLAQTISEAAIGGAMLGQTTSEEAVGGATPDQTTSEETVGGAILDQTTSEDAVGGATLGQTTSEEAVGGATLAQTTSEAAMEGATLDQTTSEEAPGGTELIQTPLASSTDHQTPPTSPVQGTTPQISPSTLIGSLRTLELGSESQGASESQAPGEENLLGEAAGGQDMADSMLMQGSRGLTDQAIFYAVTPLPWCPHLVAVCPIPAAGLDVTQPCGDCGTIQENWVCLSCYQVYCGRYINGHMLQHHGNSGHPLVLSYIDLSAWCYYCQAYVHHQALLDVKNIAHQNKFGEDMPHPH
PROTOCOL_DESCRIPTION: Inhibition of recombinant human HDAC6 using RHK-K(Ac) as substrate by homogeneous fluorescence release assay
pIC50: −log10 of the molar value.

| SMILES_STRUCTURE | pIC50 |
| --- | --- |
| O=C(CCCCCSc1nc(-c2ccc(-c3ccccc3)cc2)cc(=O)[nH]1)NO | 8.05 |
| O=C(Cc1ccccc1)Nc1ccc(C(=O)NO)nc1 | 7.43 |
| O=C(/C=C/c1ccc(NC(=O)Cc2cccc3ccccc23)cn1)NO | 7.82 |
| O=C(CCCCCSc1nc(-c2ccc3ccccc3c2)cc(=O)[nH]1)NO | 7.77 |
| O=C(CCCCSc1nc(-c2ccc3ccccc3c2)cc(=O)[nH]1)NO | 7.92 |
| O=C(Cc1cccc2ccccc12)Nc1ccc(C(=O)NO)nc1 | 7.59 |

Taken from ChEMBL document CHEMBL4325862.
